Taken from ChEMBL document CHEMBL1155297.

# Test system: Bacillus subtilis
# PROCEDURE TEXT: Antibacterial activity against Bacillus subtilis NCIM 2063 after 24 hrs by microdilution susceptibility method
# Format: functional
# CONDITION NOTES: NCIM 2063, 24 h
REPORTED PROPERTY: MIC (µg/mL)

Some entries whose results are on file:
> print(dat)
                                   compound             system  measurement
1  O=C(N[C@H](CO)[C@H](O)c1ccc([N+](=O)[O-])cc1)C(Cl)Cl  Bacillus subtilis         6.25
2  NC1=NN=C(N)C1C(CC(=O)c1ccc(Cl)cc1)C(=O)c1ccc(Cl)cc1 (stereo not given)  Bacillus subtilis          100
3  N=C1ON=C(N)C1C(CC(=O)c1ccc(Cl)cc1)C(=O)c1ccc(Cl)cc1 (stereo not given)  Bacillus subtilis           50

1 = N=C1ON=C(N)C1C(CS(=O)(=O)c1ccc(Cl)cc1)S(=O)(=O)c1ccc(Cl)cc1 (stereo not given)
2 = NC1=NN=C(N)C1C(CS(=O)(=O)c1ccc(Cl)cc1)S(=O)(=O)c1ccc(Cl)cc1 (stereo not given)
query: Determine, for 1 and 2 , which has the greater value of MIC. Write the label of whichever entry you select.
result: 1
